study target: PDGFRB (human) (UniProt P09619)
Sequence (P09619 whole entry, looked up): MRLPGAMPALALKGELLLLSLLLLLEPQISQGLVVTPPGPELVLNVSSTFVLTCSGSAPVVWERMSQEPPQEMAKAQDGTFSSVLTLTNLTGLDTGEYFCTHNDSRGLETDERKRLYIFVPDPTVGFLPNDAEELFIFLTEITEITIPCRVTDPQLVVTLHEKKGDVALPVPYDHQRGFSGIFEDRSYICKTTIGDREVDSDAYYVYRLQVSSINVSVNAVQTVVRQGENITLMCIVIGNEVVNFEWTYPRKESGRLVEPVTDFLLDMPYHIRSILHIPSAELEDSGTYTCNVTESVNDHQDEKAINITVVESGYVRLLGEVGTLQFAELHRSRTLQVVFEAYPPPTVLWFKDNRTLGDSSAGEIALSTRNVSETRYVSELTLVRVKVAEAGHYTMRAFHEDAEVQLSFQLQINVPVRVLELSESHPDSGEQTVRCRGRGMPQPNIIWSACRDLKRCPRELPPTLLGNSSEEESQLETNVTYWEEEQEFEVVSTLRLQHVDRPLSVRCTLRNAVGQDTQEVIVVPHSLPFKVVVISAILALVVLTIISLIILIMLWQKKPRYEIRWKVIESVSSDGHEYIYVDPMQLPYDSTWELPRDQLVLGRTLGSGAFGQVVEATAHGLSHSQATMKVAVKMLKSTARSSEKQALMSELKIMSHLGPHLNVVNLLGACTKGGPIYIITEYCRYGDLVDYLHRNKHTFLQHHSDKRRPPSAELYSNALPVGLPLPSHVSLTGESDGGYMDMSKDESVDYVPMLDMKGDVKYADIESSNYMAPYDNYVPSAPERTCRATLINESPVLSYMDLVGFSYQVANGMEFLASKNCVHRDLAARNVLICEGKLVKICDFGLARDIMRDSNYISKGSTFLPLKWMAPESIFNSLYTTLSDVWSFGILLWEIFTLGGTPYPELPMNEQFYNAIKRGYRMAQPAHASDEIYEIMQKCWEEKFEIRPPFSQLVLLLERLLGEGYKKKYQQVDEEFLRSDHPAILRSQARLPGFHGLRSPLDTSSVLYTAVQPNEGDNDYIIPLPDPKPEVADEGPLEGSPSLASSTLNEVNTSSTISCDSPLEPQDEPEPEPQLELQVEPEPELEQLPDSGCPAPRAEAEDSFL
assay method text: KINOMEscan competition binding
study conditions: compound 10.0 µM
Catalogue of kinase still bound, per cent of control readings, one per entry.
Unit % implied. Number only.

Example results:
- molecular string: "CCN(CC)CCCCNc1ncc2cc(-c3cc(OC)cc(OC)c3)c(NC(=O)NC(C)(C)C)nc2n1"
  units text: "%"
  kinase still bound, per cent of control: 38
- molecular string: "COc1cc2ncnc(-n3nc(-c4ccccn4)nc3N)c2cc1OC"
  units text: "%"
  kinase still bound, per cent of control: 3.4

*Q* For the record `N#CCNC(=O)c1ccc(-c2ccnc(Nc3ccc(N4CCOCC4)cc3)n2)cc1` , what value of kinase still bound, per cent of control is listed for PDGFRB (human) (UniProt P09619)?
*A* 2.2

*Q* For the record `C=CC(=O)Nc1ccc(CN(C(=O)Nc2c(Cl)c(OC)cc(OC)c2Cl)c2cc(Nc3ccc(N4CCN(C)CC4)cc3)ncn2)cc1` , what value of kinase still bound, per cent of control is listed for PDGFRB (human) (UniProt P09619)?
*A* 0

*Q* For the record `COCC(=O)NC/C=C/c1ccc2ncnc(Nc3ccc(Oc4ccc(C)nc4)c(C)c3)c2c1` , what value of kinase still bound, per cent of control is listed for PDGFRB (human) (UniProt P09619)?
*A* 46
